# System: NCI-H526 cell line
# METHOD NOTES: Cell viability assay for H526 cell (EZ-Cytox)
# Type: cell-based
# RECORDED CONDITIONS: Homo sapiens, NCI-H526, 120 h; H526 cells, 5 days, 3000 nM to 0.46 nM
MEASURED PARAMETER: IC50

Missing value: IC50, NCI-H526 cell line, entry COc1cc(C(=O)NN2CCC(CCN3CCN(c4ccc5c(c4)C(=O)N(C4CCC(=O)NC4=O)C5=O)CC3)C2)ccc1Nc1ncc2c(n1)N(C1CCCC1)CC(F)(F)C(=O)N2C (centres unmarked) . Fill in?
< 50 nM

Now the molecule COc1cc(C(=O)N[C@H]2CC[C@H](N3CCN(c4cccc5c4C(=O)N(C4CCC(=O)NC4=O)C5=O)CC3)CC2)ccc1Nc1ncc2c(n1)N(C1CCCC1)CC(F)(F)C(=O)N2C (some centres unmarked)
< 50 nM

Now the molecule COc1cc(C(=O)N2CCN(CCCCN3CCN(c4ccc5c(c4)C(=O)N(C4CCC(=O)NC4=O)C5=O)CC3)CC2)ccc1Nc1ncc2c(n1)N(C1CCCC1)CC(F)(F)C(=O)N2C (centres unmarked)
< 400 nM

Now the molecule COc1cc(C(=O)N2CCN(CCN3CCN(c4ccc5c(c4)C(=O)N(C4CCC(=O)NC4=O)C5=O)CC3)CC2)ccc1Nc1ncc2c(n1)N(C1CCCC1)CC(F)(F)C(=O)N2C (centres unmarked)
< 400 nM

Now the molecule COc1cc(C(=O)NN2CCC(CN3CCN(c4cccc5c4CN(C4CCC(=O)NC4=O)C5=O)CC3)C(F)(F)C2)ccc1Nc1ncc2c(n1)N(C(C)C)CC(F)(F)C(=O)N2C (centres unmarked)
< 50 nM
